biological target: FCoV N (Feline infectious peritonitis virus (strain 79-1146), UniProt P25909); assay: biolayer interferometry, His-tagged N immobilized on Ni-NTA biosensor; conditions: read-out: Kd ± SD
Sequence (P25909 whole entry): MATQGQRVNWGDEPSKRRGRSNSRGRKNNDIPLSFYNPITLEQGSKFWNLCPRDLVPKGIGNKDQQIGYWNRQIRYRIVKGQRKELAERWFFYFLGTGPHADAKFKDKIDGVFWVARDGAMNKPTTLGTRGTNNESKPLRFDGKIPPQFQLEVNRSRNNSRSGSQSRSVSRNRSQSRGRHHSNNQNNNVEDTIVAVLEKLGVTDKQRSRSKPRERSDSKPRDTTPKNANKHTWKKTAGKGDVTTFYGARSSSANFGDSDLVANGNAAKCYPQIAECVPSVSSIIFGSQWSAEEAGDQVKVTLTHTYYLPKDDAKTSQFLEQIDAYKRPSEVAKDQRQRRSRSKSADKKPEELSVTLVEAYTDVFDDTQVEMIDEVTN
experimental-readout: Kd (nM)
Quick note: give the figure in nM, leave out the unit.

Q: I would be grateful if you could share the reported Kd for O=C(O)c1cccc2c1NC(c1cccc(Br)c1)C1CC=CC21 (stereo not shown) [K31] .
Ans: 350

====

target: FCoV N (Feline infectious peritonitis virus (strain 79-1146), UniProt P25909); assay: filter binding, Lineweaver-Burk secondary plot, N with radiolabeled vRNA […]' NCR
experimental-readout: Ki

Q: Request body: readout Ki, system FCoV N (Feline infectious peritonitis virus (strain 79-1146), UniProt P25909), query O=C(O)c1cccc2c1NC(c1cccc(Br)c1)C1CC=CC21 (stereo not shown) [K31] . Return the value.
Ans: ~246 nM
